Data origin: patent US20080287445A1

Target: GPR73 (prokineticin 1 receptor) (Homo sapiens, UniProt Q8TCW9)
Construct: expressed in transfected cells; host or cells: HEK 293
Sequence (Q8TCW9 whole entry, species assumed): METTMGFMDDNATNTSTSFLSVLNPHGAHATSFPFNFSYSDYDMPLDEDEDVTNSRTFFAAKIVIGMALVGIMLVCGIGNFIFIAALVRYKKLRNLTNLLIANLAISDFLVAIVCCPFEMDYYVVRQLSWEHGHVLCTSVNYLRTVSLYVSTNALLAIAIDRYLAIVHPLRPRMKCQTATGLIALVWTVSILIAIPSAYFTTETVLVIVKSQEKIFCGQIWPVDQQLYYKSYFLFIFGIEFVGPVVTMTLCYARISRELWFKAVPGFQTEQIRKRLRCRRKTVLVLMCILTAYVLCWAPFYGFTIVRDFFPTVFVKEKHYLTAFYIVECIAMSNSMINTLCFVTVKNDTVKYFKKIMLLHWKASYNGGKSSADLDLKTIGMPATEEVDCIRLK
Assay: PK1 functional assay: Ca2+ mobilization screening for PK1 antagonists on the FLIPR
Format: cell-based
Details: HEK293, 10 μM compound; HEK 293 GPR73 cells; multiple values = multiple testing; read-out: Ca^2+ Mobilization % Inh @ 10 μM
Below, each of the compounds is paired with its reported inhibition at 10 µM value.
Report the figure in % without appending any unit label.

Reference set (5 entries):
compound | assay_metric | reading_unit | value
Cc1cc(C)c(CNc2nc(=O)n(Cc3ccc(-n4cccn4)cc3)c(=O)n2Cc2ccc(OC(F)F)cc2)cn1 | inhibition at 10 µM | % | 62
COc1ccc(Cn2c(=O)nc(NCc3cnc(C)cc3C)n(Cc3ccc4occc4c3)c2=O)cc1 | inhibition at 10 µM | % | 88
COc1ccc(Cn2c(=O)nc(NCc3cnc(C)cc3C)n(Cc3cccc4[nH]ccc34)c2=O)cc1 | inhibition at 10 µM | % | 92
COc1ccc(Cn2c(NCc3ccc[n+]([O-])c3)nc(=O)n(Cc3ccc(OC)cc3)c2=O)cc1 | inhibition at 10 µM | % | 45
COc1ccc(Cn2c(NCc3cccnc3N)nc(=O)n(Cc3ccc(Cl)cc3)c2=O)cc1 | inhibition at 10 µM | % | 89

Q. May I ask what inhibition at 10 µM has been recorded for `COc1ccc(Cn2c(=O)nc(NCc3cccnc3N)n(Cc3ccc4occc4c3)c2=O)cc1` ?
A. 89

Q. May I ask what inhibition at 10 µM has been recorded for `Cc1cc(C)c(CNc2nc(=O)n(Cc3ccc4c(c3)OCO4)c(=O)n2Cc2ccc(OC(F)F)cc2)c(N)n1` ?
A. 94

Q. May I ask what inhibition at 10 µM has been recorded for `COc1ccc(Cn2c(NCc3cccnc3N)nc(=O)n(Cc3ccc(OC)c([N+](=O)[O-])c3)c2=O)cc1` ?
A. 61

Q. May I ask what inhibition at 10 µM has been recorded for `COc1ccc(Cn2c(NCc3cccnc3NCCN(C)C)nc(=O)n(Cc3ccc(OC)cc3)c2=O)cc1` ?
A. 93

Q. May I ask what inhibition at 10 µM has been recorded for `COc1ccc(Cn2c(NCCc3ccccn3)nc(=O)n(Cc3ccc(OC)cc3)c2=O)cc1` ?
A. 79

Q. May I ask what inhibition at 10 µM has been recorded for `COC(=O)CCCn1c(NCc2cnc(C)cc2C)nc(=O)n(Cc2ccc(OC)cc2)c1=O` ?
A. 81

Q. May I ask what inhibition at 10 µM has been recorded for `COc1ccc(Cn2c(NCc3ccc[n+]([O-])c3N)nc(=O)n(Cc3ccc(OC)cc3)c2=O)cc1` ?
A. 78

Q. May I ask what inhibition at 10 µM has been recorded for `Cc1cc(C)c(CNc2nc(=O)n(Cc3ccc4c(c3)OCCO4)c(=O)n2Cc2ccc(OC(F)F)cc2)cn1` ?
A. 39

Q. May I ask what inhibition at 10 µM has been recorded for `COc1ccc(Cn2c(NCc3ccc(N)nc3)nc(=O)n(Cc3ccc(Cl)cc3)c2=O)cc1` ?
A. 81

Q. May I ask what inhibition at 10 µM has been recorded for `Cc1cc(C)c(CNc2nc(=O)n(Cc3ccc(C(F)(F)F)cc3)c(=O)n2Cc2ccc(OC(F)F)cc2)cn1` ?
A. 31

Q. May I ask what inhibition at 10 µM has been recorded for `COCCNc1ncccc1CNc1nc(=O)n(Cc2ccc(F)cc2)c(=O)n1Cc1ccc(OC)cc1` ?
A. 85

Q. May I ask what inhibition at 10 µM has been recorded for `COc1ccc(Cn2c(NCc3cccnc3N)cc(=O)n(Cc3ccc(OC)cc3)c2=O)cc1` ?
A. 84

###

Below, each of the molecules is paired with its reported pIC50 value.
Molecular target: GPR73 (prokineticin 1 receptor) (Homo sapiens)
Assay: PK1 functional assay: Ca2+ mobilization screening for PK1 antagonists on the FLIPR
Details: HEK 293 GPR73 cells; PK1 ligand preparation at its EC50; multiple values = multiple testing; read-out: Ca^2+ Mobilization IC50
Scale explanation: pIC50 corresponds to minus log10 of a concentration expressed in moles per litre.

Reference set (5 entries):
molecule | assay_metric | value
COc1ccc(CCn2c(NCc3cccnc3N)nc(=O)n(Cc3ccc(OC)cc3)c2=O)cc1 | pIC50 | 6.43
COc1ccc(Cn2c(NCc3c(N)nc4c(c3C)CCC4)nc(=O)n(Cc3ccc(OC)cc3)c2=O)cc1 | pIC50 | 7.13
COc1ccc(Cn2c(NCc3cccnc3N)nc(=O)n(Cc3ccc(C(F)(F)F)cc3)c2=O)cc1 | pIC50 | 5.50
COc1ccc(Cn2c(=O)nc(NCc3cccnc3N)n(Cc3ccc(S(C)(=O)=O)cc3)c2=O)cc1 | pIC50 | 6.91
COc1ccc(Cn2c(NCc3cnc(C)cc3C)nc(=O)n(Cc3ccc4c(c3)CCO4)c2=O)cc1 | pIC50 | 6.16

Q. API: value(readout= pIC50, system= GPR73 (prokineticin 1 receptor) (Homo sapiens), query= `Cc1cc(C)c(CNc2nc(=O)n(Cc3ccc4sccc4c3)c(=O)n2Cc2ccc(OC(F)F)cc2)c(N)n1` )
A. 6.54

Q. API: value(readout= pIC50, system= GPR73 (prokineticin 1 receptor) (Homo sapiens), query= `CCCc1cc(CCC)c(CNc2nc(=O)n(Cc3ccc(OC)cc3)c(=O)n2Cc2ccc(OC)cc2)c(N)n1` )
A. 6.36

Q. API: value(readout= pIC50, system= GPR73 (prokineticin 1 receptor) (Homo sapiens), query= `CCc1ccc(Cn2c(NCc3cccnc3N)nc(=O)n(Cc3ccc(OC)cc3)c2=O)cc1` )
A. 6.57

Q. API: value(readout= pIC50, system= GPR73 (prokineticin 1 receptor) (Homo sapiens), query= `COc1ccc(Cn2c(=O)nc(NCc3cccnc3N)n(Cc3ccc(OC)c([N+](=O)[O-])c3)c2=O)cc1` )
A. 5.98

Q. API: value(readout= pIC50, system= GPR73 (prokineticin 1 receptor) (Homo sapiens), query= COc1ccc(Cn2c(NCc3cccnc3NCC3CCCO3)nc(=O)n(Cc3ccc(OC)cc3)c2=O)cc1 (centres unmarked) )
A. 6.66

Q. API: value(readout= pIC50, system= GPR73 (prokineticin 1 receptor) (Homo sapiens), query= `CCNc1ncccc1CNc1nc(=O)n(Cc2ccc(F)cc2)c(=O)n1Cc1ccc(OC)cc1` )
A. 6.05

###

Molecular target: GPR73 (prokineticin 1 receptor) (Homo sapiens, UniProt Q8TCW9)
Construct: expressed in transfected cells; host or cells: HEK 293
Assay: PK1 functional assay: Ca2+ mobilization screening for PK1 antagonists on the FLIPR
Type: cell-based
Details: HEK293, 10 μM compound; HEK 293 GPR73 cells; multiple values = multiple testing; read-out: Ca^2+ Mobilization % Inh @ 10 μM
Below, each of the compounds is paired with its reported inhibition at 10 µM value.
Report the figure in % without appending any unit label.

compound | inhibition at 10 µM, %
COc1ccc(Cn2c(NCc3c[n+]([O-])c(C)cc3C)nc(=O)n(Cc3ccc(OC)cc3)c2=O)cc1 [Cpd 118] | 80

Q. May I ask what inhibition at 10 µM has been recorded for COc1ccc(Cn2c(=O)nc(NCc3cccnc3N)n(Cc3ccc(OC(F)F)cc3)c2=O)cc1 [Cpd 35] ?
A. 85

Q. May I ask what inhibition at 10 µM has been recorded for COc1ccc(Cn2c(NCc3cccnc3NCCN)nc(=O)n(Cc3ccc(F)cc3)c2=O)cc1 [Cpd 30] ?
A. 68

Q. May I ask what inhibition at 10 µM has been recorded for C=CCC(c1ccc(OC)cc1)n1c(=O)nc(NCc2cccnc2N)n(Cc2ccc(OC)cc2)c1=O (stereo not shown) [Cpd 48] ?
A. 75

###

Below, each of the compounds is paired with its reported inhibition at 10 µM value.
Biological target: GPR73 (prokineticin 1 receptor) (Homo sapiens, UniProt Q8TCW9)
Construct: expressed in transfected cells; host or cells: HEK 293
Test: PK1 functional assay: Ca2+ mobilization screening for PK1 antagonists on the FLIPR
Type: cell-based
Conditions: HEK293, 10 μM compound; HEK 293 GPR73 cells; multiple values = multiple testing; read-out: Ca^2+ Mobilization % Inh @ 10 μM

compound | system | inhibition at 10 µM
COc1ccc(Cn2c(=O)nc(NCc3cnc(C)cc3C)n(CC3CCC(OC)CC3)c2=O)cc1 (centres unmarked) | GPR73 (prokineticin 1 receptor) (Homo sapiens, UniProt Q8TCW9) | 78%

Q. API: value(readout= inhibition at 10 µM, system= GPR73 (prokineticin 1 receptor) (Homo sapiens, UniProt Q8TCW9), query= `COc1ccc(Cn2c(NCc3cccnc3N3CCNCC3)nc(=O)n(Cc3ccc(OC)cc3)c2=O)cc1` )
A. 74%

###

Target: GPR73 (prokineticin 1 receptor) (Homo sapiens, UniProt Q8TCW9)
Construct: expressed in transfected cells; host or cells: HEK 293
Experiment: PK1 functional assay: Ca2+ mobilization screening for PK1 antagonists on the FLIPR
Type: cell-based
Settings: HEK293, 10 μM compound; HEK 293 GPR73 cells; multiple values = multiple testing; read-out: Ca^2+ Mobilization % Inh @ 10 μM
Below, each of the molecules is paired with its reported inhibition at 10 µM value.
Report the figure in % without appending any unit label.

molecule | value
COc1ccc(Cn2c(OC(C)c3ccnc(N)c3)cc(=O)n(Cc3ccc(OC)cc3)c2=O)cc1 (centres unmarked) | 68
Cc1cnc(CNc2nc(=O)n(Cc3ccc4c(c3)CCO4)c(=O)n2Cc2ccc(OC(F)F)cc2)cn1 | 87
COc1ccc(Cn2c(NCc3cccnc3N)nc(=O)n(Cc3ccc(C(F)(F)F)cc3)c2=O)cc1 | 64
Cc1cc(C)c(CNc2nc(=O)n(Cc3ccc4c(c3)OCO4)c(=O)n2Cc2ccc(OC(F)F)cc2)cn1 | 73
COc1ccc(Cn2c(NCc3cccnc3N)nc(=O)n(CCOc3ccc(F)cc3)c2=O)cc1 | 82

Q. May I ask what inhibition at 10 µM has been recorded for `COc1ccc(Cn2c(NCc3cnc(C)cc3C)nc(=O)n(Cc3cccc(F)c3)c2=O)cc1` ?
A. 74

Q. May I ask what inhibition at 10 µM has been recorded for `Cc1cc(COCc2ccccc2)c(CNc2nc(=O)n(Cc3ccc4c(c3)CCO4)c(=O)n2Cc2ccc(OC(F)F)cc2)c(N)n1` ?
A. 12

Q. May I ask what inhibition at 10 µM has been recorded for `COC(=O)c1ccc(Cn2c(NCc3cccnc3N)nc(=O)n(Cc3ccc(OC)cc3)c2=O)cc1` ?
A. 84
